Just for reference, patent US8962608B2 is where these values come from.

- tested.system: JAK2 (recombinant purified GST-tagged catalytic domain) (Homo sapiens (Human), UniProt O60674);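 further: biochemical JAK kinase assay with HTRF detection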
- Sequence (O60674 849-1124): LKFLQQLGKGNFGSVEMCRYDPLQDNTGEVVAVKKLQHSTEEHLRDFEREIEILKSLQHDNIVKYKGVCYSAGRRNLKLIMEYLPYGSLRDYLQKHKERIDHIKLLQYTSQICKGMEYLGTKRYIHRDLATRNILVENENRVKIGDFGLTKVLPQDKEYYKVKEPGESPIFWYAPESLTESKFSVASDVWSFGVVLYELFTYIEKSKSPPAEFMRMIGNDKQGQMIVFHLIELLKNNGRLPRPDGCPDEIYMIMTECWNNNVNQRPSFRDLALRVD
- experimental.protocol: biochemical
Can you tell me pIC50 for the items I'm about to list?
Give bare numbers, as −log10 of the molar value.

Answered cases to consult:
compound	observed.measurement
N#Cc1ccc(Nc2nn([C@H]3CCCC[C@H]3C#N)cc2C(N)=O)cc1 (racemic)	7.44
CC(C)(c1ccc(Nc2nn([C@H]3CCCC[C@@H]3C#N)cc2C(N)=O)cc1F)[C@H](O)C(F)(F)F (single isomer, unassigned)	7.96
N#C[C@H]1CCCCC1n1cc(C(N)=O)c(Nc2ccc3c(c2)CCC(=O)N3)n1 (mixture of isomers)	8.10
N#C[C@H]1C[C@H](O)CC[C@@H]1n1cc(C(N)=O)c(Nc2ccccc2)n1 (single isomer, unassigned)	7.59
N#C[C@H]1C[C@@H](NCC2(O)CC2)CC[C@@H]1n1cc(C(N)=O)c(Nc2ccc(C(F)(F)F)cc2)n1 (single isomer, unassigned)	7.64

Hi there! I need pIC50 for each item below, if you can.
1. N#C[C@H]1CCCC[C@@H]1n1cc(C(N)=O)c(Nc2ccc(C3CC3)nc2)n1 (single isomer, unassigned)
2. CS(=O)(=O)c1ccc(Nc2nn([C@H]3CC[C@@H](N4CC5(CCC5)C4)C[C@@H]3C#N)cc2C(N)=O)cc1 (single isomer, unassigned)
3. CC(C)(C)OC(=O)N[C@@H]1CC[C@H](C#N)C(n2cc(C(N)=O)c(Nc3ccc(F)cc3)n2)C1 (single isomer, unassigned) [Example 44-1]
4. C[C@H](N[C@@H]1CC[C@H](n2cc(C(N)=O)c(Nc3ccc(Cl)c(F)c3)n2)[C@@H](C#N)C1)C1CC1 (single isomer, unassigned)
5. N#Cc1ccc(Nc2nn([C@H]3CCCC[C@@H]3C#N)cc2C(N)=O)cn1 (single isomer, unassigned)

[A]
[7.59, 7.82, 7.37, 6.67, 7.66]

For every listed record, write down its pIC50.
1. COC(=O)c1cncc(Nc2nn([C@H]3CCCC[C@@H]3C#N)cc2C(N)=O)c1 (single isomer, unassigned)
2. CC(N[C@H]1CC[C@H](n2cc(C(N)=O)c(Nc3ccc(S(=O)(=O)C(F)(F)F)cc3)n2)[C@@H](C#N)C1)C1CC1 (single isomer, unassigned)

[A]
[7.05, 7.96]
